- ASSAY TEXT: Mycobacterium tuberculosis growth inhibition, primary screen (AID 1259343)
- TEST SETTINGS: at 10 µM, hits give high values
In all, about 6,200 compounds went through this assay and about 2,900 (47%) were called active. So high a share suggests a set chosen from earlier hits. This is one part of the list.
Give inhibition for every item shown.
One number for each entry, in %.

Cn1ccc(C(=O)Nc2ccccc2N2CCc3sccc3C2)cc1=O    63.6

Would you mind giving inhibition for every molecule in the list below?
1. CCC1c2ccsc2CCN1CC(=O)Nc1ccccc1C#N (configuration not stated)
2. COc1ccccc1NC(=O)c1ccc2noc(-c3ccccc3)c2c1
3. Cc1ccc(S(=O)(=O)NC(=O)c2ccccc2)cc1C(C)C
4. COc1cccc(Nc2ccc3c(-c4ccccc4)noc3n2)c1OC
5. CC1CCN(S(=O)(=O)NCc2cc(-c3ccccc3)on2)CC1
6. Cc1ccccc1C(C)NS(=O)(=O)c1ccc(Cl)cc1 (configuration not stated)

**A:**
1. 39.9
2. 42.1
3. 72.5
4. 70.1
5. 20.4
6. 17.3

Would you mind giving inhibition for every molecule in the list below?
1. COc1cc(C=Cc2ccc3ccccc3n2)cc(Br)c1O
2. Cc1cc(NC(=O)c2cccn(Cc3ccc(Cl)cc3)c2=O)c2ccccc2n1
3. COc1cc(C=Cc2ccc3ccccc3n2)cc(Cl)c1OC
4. Fc1ccc(C=Cc2ccc3ccccc3n2)cc1
5. C=CCSc1nn2c(=O)c3ccccc3nc2s1

**A:**
[73.5, 20.7, 26.8, 32.5, 97.6]

====

- ASSAY TEXT: Mycobacterium tuberculosis growth inhibition, primary screen (AID 1259343)
- TEST SETTINGS: at 10 µM
Screen size: about 6,200 compounds; about 2,900 (47%) were called active. No stated cut-off is given here; in the data, active means inhibition above about 50%; inactive means the rest. The set was probably picked from earlier hits. The list shows a part of the results.
Form entry, call: pick from active, inactive

As a guide, the following entries are already answered.
CC(NCc1cc(=O)n2cc(Br)ccc2n1)c1cc(F)c(Cl)cc1Cl (configuration not stated)    inactive
Fc1cccc(CN2CCN(Cc3ccc(-c4ccccc4)nc3)CC2)c1    inactive
Cc1ccc(C=NNC(=O)NC2CCCCC2)o1    inactive

**Q:** Can you look up the reported call for `O=c1cc(CSc2nc3ncc(Cl)cc3[nH]2)nc2ccc(Br)cn12` for me?
**A:** active

**Q:** Can you look up the reported call for `CC(C)NC(=S)NN=Cc1c(F)c(F)c(F)c(F)c1F` for me?
**A:** active

**Q:** Can you look up the reported call for c1ccc(N=c2scc(-c3ccccc3)n2CC2CCCO2)cc1 (configuration not stated) for me?
**A:** inactive

**Q:** Can you look up the reported call for `CC(C)Oc1cccc(CN2CCN(c3ccnc(N(C)C)n3)CC2)c1` for me?
**A:** active

**Q:** Can you look up the reported call for `N#Cc1c(F)cccc1NCCNc1nc2ccccc2o1` for me?
**A:** inactive

**Q:** Can you look up the reported call for CC(SC1CCCC1)C(=O)N1CCCC1 (configuration not stated) for me?
**A:** active

**Q:** Can you look up the reported call for `N#Cc1c(F)cccc1NCc1csc(C2CC2)n1` for me?
**A:** active

**Q:** Can you look up the reported call for COc1ccnc(CS(=O)c2nc3ccc(OC(F)F)cc3[nH]2)c1OC (configuration not stated) for me?
**A:** active

**Q:** Can you look up the reported call for c1ccc2oc(-c3nnn(CC4CCCCO4)n3)cc2c1 (configuration not stated) for me?
**A:** active
